The values you see were collected from patent US20250382388A1.

- Assayed System: T1, human serum albumin (human, UniProt P02768 25-609)
- T1 construct: Immobilised on SPR chips; also added in solution to the cell assays; also called HSA; humanSA
- Assay: SPR Biacore 3000, HSA on chip, pH 5.5
# reported koff; entries follow

Binder	Unit Tag	koff
TA-Fc-ABDEG-2H11-v16 (Fc fusion, Scaffold as for m24) DKTHTCPPCPAPELLGGPSVFLFPPKPKDTLYITREPEVTCVVVDVSHEDPEVKFNWYVDGVEVHNAKTKPREEQYNSTYRVVSVLTVLHQDWLNGKEYKCKVSNKALPAPIEKTISKAKGQPREPQVYTLPPSRDELTKNQVSLTCLVKGFYPSDIAVEWESNGQPENNYKTTPPVLDSDGSFFLYSKLTVDKSRWQQGNVFSCSVMHEALKFHYTQKSLSLSPGGGGGSGGGGSGGGGSGGGGSELQVVESGGGLVQAGGSLRLSCAASGRTFRSNTMGWFRQAPGKEREFVAAITWSGGTTYYADSVKGRFAISGDNAKNTVYLQMNSLKPEDTAVYYCAAEGPKWEPWNGIYHPADAGSWGQGTQVTVSS	s⁻¹	0.00301
TA-Fc-ABDEG-2H11-v15 (Fc fusion) DKTHTCPPCPAPELLGGPSVFLFPPKPKDTLYITREPEVTCVVVDVSHEDPEVKFNWYVDGVEVHNAKTKPREEQYNSTYRVVSVLTVLHQDWLNGKEYKCKVSNKALPAPIEKTISKAKGQPREPQVYTLPPSRDELTKNQVSLTCLVKGFYPSDIAVEWESNGQPENNYKTTPPVLDSDGSFFLYSKLTVDKSRWQQGNVFSCSVMHEALKFHYTQKSLSLSPGGGGGSGGGGSGGGGSGGGGSELQVVESGGGLVQAGGSLRLSCAASGRTFRSNTMGWFRQAPGKEREFVAAITWSGGTTYYADSVKGRFAISGDNAKNTVYLQMNSLKPEDTAVYYCAAEGPKWEPWNGIYHPAAFGSWGQGTQVTVSS	s⁻¹	0.00174
TA-Fc-ABDEG-2H11 (2H11 parental fused at the C-terminus of Fc-ABDEG) (Fc fusion) DKTHTCPPCPAPELLGGPSVFLFPPKPKDTLYITREPEVTCVVVDVSHEDPEVKFNWYVDGVEVHNAKTKPREEQYNSTYRVVSVLTVLHQDWLNGKEYKCKVSNKALPAPIEKTISKAKGQPREPQVYTLPPSRDELTKNQVSLTCLVKGFYPSDIAVEWESNGQPENNYKTTPPVLDSDGSFFLYSKLTVDKSRWQQGNVFSCSVMHEALKFHYTQKSLSLSPGGGGGSGGGGSGGGGSGGGGSELQVVESGGGLVQAGGSLRLSCAASGRTFRSNTMGWFRQAPGKEREFVAAITWSGGTTYYADSVKGRFAISGDNAKNTVYLQMNSLKPEDTAVYYCAAEGPKWEPWNGIYHPADFGSWGQGTQVTVSS	s⁻¹	0.00016
TA-Fc-ABDEG-2H11-v12 (Fc fusion, Scaffold as for m24) DKTHTCPPCPAPELLGGPSVFLFPPKPKDTLYITREPEVTCVVVDVSHEDPEVKFNWYVDGVEVHNAKTKPREEQYNSTYRVVSVLTVLHQDWLNGKEYKCKVSNKALPAPIEKTISKAKGQPREPQVYTLPPSRDELTKNQVSLTCLVKGFYPSDIAVEWESNGQPENNYKTTPPVLDSDGSFFLYSKLTVDKSRWQQGNVFSCSVMHEALKFHYTQKSLSLSPGGGGGSGGGGSGGGGSGGGGSELQVVESGGGLVQAGGSLRLSCAASGRTFRSNTMGWFRQAPGKEREFVAAITWSGGTTYYADSVKGRFAISGDNAKNTVYLQMNSLKPEDTAVYYCAAEGPKWEPWNGIAHPADFGSWGQGTQVTVSS	s⁻¹	9.72e-05
TA-Fc-ABDEG-2H11-v3 (Fc fusion) DKTHTCPPCPAPELLGGPSVFLFPPKPKDTLYITREPEVTCVVVDVSHEDPEVKFNWYVDGVEVHNAKTKPREEQYNSTYRVVSVLTVLHQDWLNGKEYKCKVSNKALPAPIEKTISKAKGQPREPQVYTLPPSRDELTKNQVSLTCLVKGFYPSDIAVEWESNGQPENNYKTTPPVLDSDGSFFLYSKLTVDKSRWQQGNVFSCSVMHEALKFHYTQKSLSLSPGGGGGSGGGGSGGGGSGGGGSELQVVESGGGLVQAGGSLRLSCAASGRTFRSNTMGWFRQAPGKEREFVAAITWSGGTTYYADSVKGRFAISGDNAKNTVYLQMNSLKPEDTAVYYCAAEGAKWEPWNGIYHPADFGSWGQGTQVTVSS	s⁻¹	0.000135
